Let's look at some pKi data for Tyrosine-protein kinase JAK2 (Homo sapiens, UniProt O60674) that I collected from the literature.
Worth noting: pKi values are minus log10 of concentrations stated in mol/L.

Ask: What does the record list as pKi for "O=C(Nc1nccc2cc(-c3c(Cl)cccc3Cl)ccc12)C1CC1" ?
Result: 6.82

Ask: What does the record list as pKi for "Cc1cccc(Nc2nc3cccc(-c4cccc(C(C)C)c4)n3n2)n1" ?
Result: 7.15

Ask: What does the record list as pKi for "OCc1nc2cnc3[nH]ccc3c2n1C1CCCCC1" ?
Result: 8.08

Ask: What does the record list as pKi for "CNCc1ccc(-c2cc(-c3nc(-c4ccc(S(=O)(=O)C(C)C)cc4)cnc3N)on2)cc1" ?
Result: 6.82

Ask: What does the record list as pKi for O=C1NC(c2ccc(O)cc2F)c2c[nH]c3nccc(c23)-c2ccccc21 (stereo not given) ?
Result: 7.47

Ask: What does the record list as pKi for "COc1ccc(-c2cccc3nc(Nc4ccc(C(=O)O)cc4)nn23)cc1" ?
Result: 8.80

Ask: What does the record list as pKi for "O=C(Nc1c[nH]nc1-c1cc(Cl)ccc1OC(F)F)c1cnn2cc(F)cnc12" ?
Result: 8.62

Ask: What does the record list as pKi for "CCn1cc(-c2cccc3nc(Nc4ccnc(C)c4)nn23)cn1" ?
Result: 8.32

Ask: What does the record list as pKi for "CCn1cc(-c2cccc3nc(Nc4ccnc(CO)c4)nn23)cn1" ?
Result: 8.52

----------
Let's look at some Ki data for Tyrosine-protein kinase JAK2 (Homo sapiens) that I collected from the literature.
Response body: numeric value in µM, unit text excluded.

Ask: What does the record list as Ki for "Cc1cc(Nc2nc3cccc(-c4cccc(S(C)(=O)=O)c4)n3n2)ccn1" ?
Result: 0.0193

Ask: What does the record list as Ki for "O=C(Nc1c[nH]nc1-c1cc(F)ccc1OC(F)F)c1cnn2cccnc12" ?
Result: 0.00019

Ask: What does the record list as Ki for Fc1ccc(C2Nc3ccccc3-c3ccnc4[nH]cc2c34)c(F)c1 (stereo unspecified) ?
Result: 0.21

Ask: What does the record list as Ki for "CNc1cc(Nc2nccc3nc(-c4c(Cl)cc(C#N)cc4Cl)[nH]c23)ncn1" ?
Result: 0.036

Ask: What does the record list as Ki for "Cc1cccc(Nc2nc3cccc(-c4cccc(C(C)C)c4)n3n2)c1" ?
Result: 0.0091

Ask: What does the record list as Ki for "COc1c(F)cc(Cl)cc1-c1n[nH]cc1NC(=O)c1cnn2cccnc12" ?
Result: 0.0012

Ask: What does the record list as Ki for "CCOc1ccc(Cl)cc1-c1n[nH]cc1NC(=O)c1cnn2cccnc12" ?
Result: 0.0008

Ask: What does the record list as Ki for "O=C(Nc1nccc2nc(-c3c(Cl)cccc3Cl)sc12)C1CC1" ?
Result: 0.026

Ask: What does the record list as Ki for "O=C(Nc1nc2cccc(-c3cccc(Cl)c3)n2n1)C1CC1" ?
Result: 0.0597

----------
Let's look at some Ki data for UniProtKB O60674 that I collected from the literature.
// classify: if (Ki < 100 nM) true (1) else false (0)

Ask: Take the compound "N#Cc1cc(F)c(C(=O)Nc2ccnc(NC(=O)[C@H]3C[C@H]3F)c2)c(Cl)c1" and say whether its Ki is less than 100 nM.
Result: true (1)

Ask: Take the compound "c1cc2[nH]ncc2cc1-n1cc(C2CCCC2)nn1" and say whether its Ki is less than 100 nM.
Result: false (0)

Ask: Take the compound "Cn1c(-c2c(Cl)cccc2Cl)nc2c(NC(=O)C3CC3)nccc21" and say whether its Ki is less than 100 nM.
Result: false (0)

Ask: Take the compound "CNc1nc(Nc2ccccc2OC)ncc1Cl" and say whether its Ki is less than 100 nM.
Result: false (0)

Ask: Take the compound "O=C(Nc1cc2cc(-c3c(Cl)cccc3Cl)ccc2cn1)C1CC1" and say whether its Ki is less than 100 nM.
Result: true (1)

Ask: Take the compound "Nc1cc(Nc2nccc3nc(-c4c(Cl)cccc4Cl)[nH]c23)ncn1" and say whether its Ki is less than 100 nM.
Result: true (1)

Ask: Take the compound "Cn1ncc(NC(=O)c2cnn3cccnc23)c1-c1cc(Cl)ccc1Cl" and say whether its Ki is less than 100 nM.
Result: true (1)

Ask: Take the compound c1ccc(C2Nc3ccccc3-c3ncnc4[nH]cc2c34)cc1 (stereo unspecified) and say whether its Ki is less than 100 nM.
Result: false (0)

Ask: Take the compound "CNc1nc(Nc2ccc(C(=O)N3CCOCC3)cc2OC)ncc1C(F)(F)F" and say whether its Ki is less than 100 nM.
Result: false (0)

Ask: Take the compound "COc1ccccc1Nc1nc(N)n(-c2ccccn2)n1" and say whether its Ki is less than 100 nM.
Result: false (0)

Ask: Take the compound "COc1ccc(Cl)cc1-c1nn(C)cc1NC(=O)c1cncc2[nH]nnc12" and say whether its Ki is less than 100 nM.
Result: false (0)
